Target: T1, PARP4 BRCT-WGR-CAT K23/24Q (human, UniProt Q9UKK3 1-573, K23Q;K24Q)
T1 sequence: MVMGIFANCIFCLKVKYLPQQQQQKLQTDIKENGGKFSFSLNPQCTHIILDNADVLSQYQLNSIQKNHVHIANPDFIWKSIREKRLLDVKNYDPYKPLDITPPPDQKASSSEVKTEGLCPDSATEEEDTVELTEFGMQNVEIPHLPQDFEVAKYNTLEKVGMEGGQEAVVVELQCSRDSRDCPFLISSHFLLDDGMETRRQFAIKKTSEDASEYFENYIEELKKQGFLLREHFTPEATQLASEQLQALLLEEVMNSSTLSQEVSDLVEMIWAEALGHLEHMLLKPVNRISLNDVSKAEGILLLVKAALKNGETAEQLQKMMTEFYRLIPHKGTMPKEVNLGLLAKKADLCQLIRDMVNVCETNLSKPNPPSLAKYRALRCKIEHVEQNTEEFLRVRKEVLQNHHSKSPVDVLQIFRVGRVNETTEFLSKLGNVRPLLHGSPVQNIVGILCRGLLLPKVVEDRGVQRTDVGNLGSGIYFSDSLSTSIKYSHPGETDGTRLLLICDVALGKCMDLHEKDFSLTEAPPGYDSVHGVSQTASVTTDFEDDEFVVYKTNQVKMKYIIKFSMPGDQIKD
Assay: EMSA; 20 nM probe; rough estimate; FP: 50 mM Tris pH 7.5, 50 mM NaCl, 1 mM MgCl2, 0.05% NP40, 2 mM DTT, 5% glycerol, 25 ug/ml BSA, room temp 30 min; EMSA: 50 mM Tris pH 7.5, 50 mM NaCl, 4% Ficoll PM400, 0.05% NP40, 2 mM DTT, 0-18 uM protein, room temp 30 min, gel at 4 C
Details: protein: recombinant; tags: N-terminal His-SUMO removed by TEV; label: 5'-6-FAM; predicted intramolecular fold
assayReadout: Kd

> print(dat)
                                     binder  obsvalue
1  vtRNA1-3 (structured_RNA) RNA: GGCUGGCUUUAGCUCAGCGGUUACUUCGCGUGUCAUCAAACCACCUCUCUGGGUUGUUCGAGACCCGCGGGCGCUCUCCAGCCCUCUU    ~54 µM
